Origin of the recorded values: the supplement of paper PMC7877785

# test: self-splicing fitness, log relative to wild type (ln ratio); higher = more splicing; Tetrahymena group I intron in knt gene, E. coli kanamycin selection, DiMSum; sequences stand for … in CUCUCU…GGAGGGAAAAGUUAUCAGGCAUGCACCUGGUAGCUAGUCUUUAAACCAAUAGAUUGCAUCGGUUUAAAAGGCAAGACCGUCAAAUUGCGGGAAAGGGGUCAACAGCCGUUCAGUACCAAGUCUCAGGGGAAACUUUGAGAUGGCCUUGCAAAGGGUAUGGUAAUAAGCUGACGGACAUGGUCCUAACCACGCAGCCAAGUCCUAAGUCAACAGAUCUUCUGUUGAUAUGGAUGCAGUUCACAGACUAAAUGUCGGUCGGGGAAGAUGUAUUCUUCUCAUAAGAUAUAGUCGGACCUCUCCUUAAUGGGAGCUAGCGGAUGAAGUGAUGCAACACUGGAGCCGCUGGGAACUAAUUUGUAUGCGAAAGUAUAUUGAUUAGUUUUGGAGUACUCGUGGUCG;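 also: selection with 25 µg/mL kanamycin versus none on LB agar overnight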
# measurement parameters: 30 °C
measure name: self-splicing fitness (ln)

- sequence entry: "CACCAGCAAUAUUACGGGGU"
  assay value: -4.29
- sequence entry: "CAACAGCAAUAUUACGUAGG"
  assay value: -0.482
- sequence entry: "GGAAAGCAAUAUUACGCAAU"
  assay value: -2.27
- sequence entry: "AUAGAGCAAUAUUACGCAAU"
  assay value: -0.971
- sequence entry: "GUUCAGCAAUAUUACGUGAA"
  assay value: -1.32
- sequence entry: "AUGCAGCAAUAUUACGCAAA"
  assay value: -2.6
- sequence entry: "CGCAAGCAAUAUUACGAUAC"
  assay value: -2.51
- sequence entry: "CGUCAGCAAUAUUACGGUUU"
  assay value: -2.39
- sequence entry: "GUGAAGCAAUAUUACGAAUG"
  assay value: -0.846
- sequence entry: "UCCCAGCAAUAUUACGUCAG"
  assay value: -3.74
- sequence entry: "GCACAGCAAUAUUACGGCUC"
  assay value: -0.268
- sequence entry: "CUCUAGCAAUAUUACGAAUG"
  assay value: -1.55
- sequence entry: "CCUUAGCAAUAUUACGAUUU"
  assay value: -4.25
- sequence entry: "GUAGAGCAAUAUUACGUACU"
  assay value: -2.23
- sequence entry: "GCGCAGCAAUAUUACGGCCG"
  assay value: -2.99
- sequence entry: "UCCGAGCAAUAUUACGCUGC"
  assay value: -2.96

====

# test: self-splicing fitness, log relative to wild type (ln ratio); higher = more splicing; Tetrahymena group I intron in knt gene, E. coli kanamycin selection, DiMSum; sequences stand for … in CUCUCU…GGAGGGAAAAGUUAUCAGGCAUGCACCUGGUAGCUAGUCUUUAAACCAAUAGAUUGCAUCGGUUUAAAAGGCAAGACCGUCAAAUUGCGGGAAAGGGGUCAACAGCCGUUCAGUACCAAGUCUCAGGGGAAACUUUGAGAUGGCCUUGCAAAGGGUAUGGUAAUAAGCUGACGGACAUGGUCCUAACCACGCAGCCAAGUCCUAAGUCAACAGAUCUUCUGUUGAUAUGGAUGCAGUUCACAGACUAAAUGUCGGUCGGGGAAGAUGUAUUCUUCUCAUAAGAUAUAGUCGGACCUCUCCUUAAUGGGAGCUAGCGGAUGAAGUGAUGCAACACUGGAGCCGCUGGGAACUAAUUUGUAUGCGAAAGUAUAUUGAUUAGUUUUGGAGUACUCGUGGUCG
# measurement parameters: 30 °C
Consider the reported self-splicing fitness (ln) of an entry and match it to a band in 1 (below -3), 2 (-3 to below -1), 3 (-1 or more)

- sequence entry: "GCUAAGCAAUAUUACGUUCA"
  group label: 2
- sequence entry: "CUCCAGCAAUAUUACGUUCU"
  group label: 2
- sequence entry: "CGCCAGCAAUAUUACGCGAC"
  group label: 1
- sequence entry: "CUUCAGCAAUAUUACGCAAC"
  group label: 2
- sequence entry: "UAGUAGCAAUAUUACGAUCU"
  group label: 2
- sequence entry: "CACGAGCAAUAUUACGUGUC"
  group label: 1
- sequence entry: "GUACAGCAAUAUUACGGUAA"
  group label: 3
- sequence entry: "UCAUAGCAAUAUUACGAUGU"
  group label: 2
- sequence entry: "GCGUAGCAAUAUUACGGAUA"
  group label: 2
- sequence entry: "UCUUAGCAAUAUUACGUACG"
  group label: 2
- sequence entry: "ACCCAGCAAUAUUACGCUCC"
  group label: 3
- sequence entry: "CGGCAGCAAUAUUACGGCGG"
  group label: 2
- sequence entry: "UUCGAGCAAUAUUACGAUUA"
  group label: 2
- sequence entry: "GCAGAGCAAUAUUACGACUA"
  group label: 2
- sequence entry: "CAGGAGCAAUAUUACGUGAU"
  group label: 1
- sequence entry: "UAAUAGCAAUAUUACGUAUA"
  group label: 2
- sequence entry: "AUGAAGCAAUAUUACGCAUG"
  group label: 3
- sequence entry: "GUAGAGCAAUAUUACGAGCG"
  group label: 3
- sequence entry: "CAUAAGCAAUAUUACGCACC"
  group label: 2
- sequence entry: "UAGGAGCAAUAUUACGGUCA"
  group label: 2
- sequence entry: "UCAGAGCAAUAUUACGUCUC"
  group label: 2
- sequence entry: "UAUUAGCAAUAUUACGGGCA"
  group label: 3
- sequence entry: "CUAAAGCAAUAUUACGAGUU"
  group label: 2
- sequence entry: "AGUUAGCAAUAUUACGAACA"
  group label: 3
- sequence entry: "GUCUAGCAAUAUUACGCUUA"
  group label: 3
- sequence entry: "AAUCAGCAAUAUUACGGGGA"
  group label: 2
- sequence entry: "AGCAAGCAAUAUUACGGCUA"
  group label: 2
- sequence entry: "UCCAAGCAAUAUUACGAUAC"
  group label: 1
- sequence entry: "AUGAAGCAAUAUUACGGAUC"
  group label: 3
- sequence entry: "GCCCAGCAAUAUUACGUAAA"
  group label: 3
- sequence entry: "CAAGAGCAAUAUUACGUGAG"
  group label: 2
- sequence entry: "UAACAGCAAUAUUACGACAG"
  group label: 3
- sequence entry: "AUUAAGCAAUAUUACGUGCU"
  group label: 2
- sequence entry: "CAUAAGCAAUAUUACGCCAU"
  group label: 2
- sequence entry: "AAUGAGCAAUAUUACGGGCA"
  group label: 1
- sequence entry: "UGUAAGCAAUAUUACGAUGG"
  group label: 2
- sequence entry: "AUUGAGCAAUAUUACGGAUC"
  group label: 1
- sequence entry: "AAUGAGCAAUAUUACGGACU"
  group label: 2
- sequence entry: "GGCUAGCAAUAUUACGAGUA"
  group label: 2
- sequence entry: "GCGAAGCAAUAUUACGGUUA"
  group label: 3
- sequence entry: "CAGUAGCAAUAUUACGGUCG"
  group label: 3
- sequence entry: "ACCUAGCAAUAUUACGCCAA"
  group label: 1
- sequence entry: "CAGCAGCAAUAUUACGUGGC"
  group label: 1
- sequence entry: "CCGAAGCAAUAUUACGCAAG"
  group label: 2
- sequence entry: "GGACAGCAAUAUUACGGAAG"
  group label: 2
- sequence entry: "UACAAGCAAUAUUACGACCU"
  group label: 3
- sequence entry: "CCAUAGCAAUAUUACGGGGU"
  group label: 1
- sequence entry: "ACGCAGCAAUAUUACGCGCG"
  group label: 2
- sequence entry: "UAUCAGCAAUAUUACGACCA"
  group label: 3
- sequence entry: "UGAUAGCAAUAUUACGCCUG"
  group label: 3
- sequence entry: "GUACAGCAAUAUUACGCGAU"
  group label: 1
- sequence entry: "CUCUAGCAAUAUUACGAUAA"
  group label: 1
- sequence entry: "ACACAGCAAUAUUACGGCAU"
  group label: 2
- sequence entry: "AAUAAGCAAUAUUACGUCCG"
  group label: 2
- sequence entry: "GGUUAGCAAUAUUACGAACU"
  group label: 2
- sequence entry: "AUCAAGCAAUAUUACGCCUU"
  group label: 3
- sequence entry: "GCCAAGCAAUAUUACGCUCG"
  group label: 1
- sequence entry: "UUACAGCAAUAUUACGUUUU"
  group label: 1
- sequence entry: "CCCCAGCAAUAUUACGUCUG"
  group label: 1
- sequence entry: "UCCCAGCAAUAUUACGAUGC"
  group label: 1
- sequence entry: "ACUUAGCAAUAUUACGCUCU"
  group label: 3
